target: UniProt:P50281; assay: Enzyme inhibition studies, MMP-14 catalytic domain; format: biochemical
Where a name gives a salt, the structure may show the parent alone.
Listed here are molecules together with their documented pKi.
Worth noting: pKi values are minus log10 of concentrations stated in mol/L.

N=C(N)Nc1ccc(Oc2ccc(S(=O)(=O)CC3CS3)cc2)cc1 (centres unmarked) [Compound 7, HCl salt] = 7.40

Entry NCc1ccc(Oc2ccc(S(=O)(=O)CC3CS3)cc2)cc1 (centres unmarked) [Compound 5, HCl salt] ; pKi = 6.92

====

test: physchem; details: water, thermodynamic from solid
readout name: solubility (µg/mL)
The figure you give is taken to be in µg/mL; do not add the unit.

The following compounds have reported results that may help.
Nc1ccc(Oc2ccc(S(=O)(=O)CC3CS3)cc2)cc1 (stereo not drawn) = 4900
NCc1nc(-c2ccc(Oc3ccc(S(=O)(=O)CC4CS4)cc3)cc2)no1 (stereo not drawn) = 610

Okay, next one:
Short answer for CC(=O)NCc1ccc(Oc2ccc(S(=O)(=O)CC3CS3)cc2)cc1 (stereo not drawn) : solubility was 25
